The entries below are paired with their reported glycan array binding signal (z-score).
assayed system: Gal(b1-4)GlcNAc(b1-2)Man(a1-6)Man(b1-4)GlcNAc(b1-4)GlcNAc
test description: glycan array binding signal (z-score within array); higher = stronger binding
stated conditions: glycan notation: IUPAC condensed, linker removed
Shown is part of a subset that was picked to be rich in the strongest signals.
Give a plain numeric answer without units written out.

binder: GSL-I-B4 (Griffonia simplicifolia) (protein) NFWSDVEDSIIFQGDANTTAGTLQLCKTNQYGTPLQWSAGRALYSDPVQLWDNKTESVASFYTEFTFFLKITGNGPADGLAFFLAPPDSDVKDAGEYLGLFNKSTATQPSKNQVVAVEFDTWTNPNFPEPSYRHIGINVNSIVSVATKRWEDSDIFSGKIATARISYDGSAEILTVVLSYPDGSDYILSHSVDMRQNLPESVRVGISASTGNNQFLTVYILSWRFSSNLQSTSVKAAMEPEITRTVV
value kind: glycan array binding signal (z-score)
reported result: -0.205
--
binder: NKR-PIC (Mus musculus) (protein) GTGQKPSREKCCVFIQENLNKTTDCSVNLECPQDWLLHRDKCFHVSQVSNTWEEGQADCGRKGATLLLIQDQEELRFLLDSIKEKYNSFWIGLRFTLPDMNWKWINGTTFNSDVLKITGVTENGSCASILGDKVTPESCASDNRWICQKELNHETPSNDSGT
value kind: glycan array binding signal (z-score)
reported result: -0.334
--
binder: CC1G-11630 (Coprinopsis cinerea), A8P462 (protein) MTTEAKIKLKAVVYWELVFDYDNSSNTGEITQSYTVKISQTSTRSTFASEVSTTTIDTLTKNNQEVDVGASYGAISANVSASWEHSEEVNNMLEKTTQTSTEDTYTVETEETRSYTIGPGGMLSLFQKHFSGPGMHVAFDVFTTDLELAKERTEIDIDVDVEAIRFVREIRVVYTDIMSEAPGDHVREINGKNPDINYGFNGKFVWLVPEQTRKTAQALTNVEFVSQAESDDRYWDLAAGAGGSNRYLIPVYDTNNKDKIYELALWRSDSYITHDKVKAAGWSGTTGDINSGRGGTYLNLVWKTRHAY
value kind: glycan array binding signal (z-score)
reported result: -0.208
--
binder: CTLY 1 (Homo sapiens), Q6ZS10 (protein) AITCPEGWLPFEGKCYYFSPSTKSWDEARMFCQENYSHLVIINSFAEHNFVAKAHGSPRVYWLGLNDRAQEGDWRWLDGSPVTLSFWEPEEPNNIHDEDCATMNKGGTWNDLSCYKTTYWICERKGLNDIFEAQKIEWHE
value kind: glycan array binding signal (z-score)
reported result: -0.226

Query: Determine its reported glycan array binding signal (z-score): LlpB (Pseudomonas fluorescens) (protein) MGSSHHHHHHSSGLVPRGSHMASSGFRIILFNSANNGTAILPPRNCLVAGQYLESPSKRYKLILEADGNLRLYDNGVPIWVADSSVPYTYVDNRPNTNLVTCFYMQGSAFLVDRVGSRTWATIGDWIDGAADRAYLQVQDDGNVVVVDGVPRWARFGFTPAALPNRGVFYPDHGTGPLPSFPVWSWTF
Result: -0.158

Query: Determine its reported glycan array binding signal (z-score): Erv41-EDTA (Saccharomyces cerevisiae), Q04651 (protein) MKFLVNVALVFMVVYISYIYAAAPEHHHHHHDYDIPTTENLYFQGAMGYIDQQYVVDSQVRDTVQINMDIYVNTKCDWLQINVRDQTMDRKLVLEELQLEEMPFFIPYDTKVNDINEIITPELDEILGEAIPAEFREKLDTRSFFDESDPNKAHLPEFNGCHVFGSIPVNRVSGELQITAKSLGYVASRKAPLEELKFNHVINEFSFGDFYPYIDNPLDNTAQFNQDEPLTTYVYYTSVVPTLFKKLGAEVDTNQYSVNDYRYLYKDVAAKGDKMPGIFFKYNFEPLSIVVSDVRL
Result: -0.604
